Target: Cytochrome P450 3A4 (Homo sapiens, UniProt P08684)
Sequence (P08684 whole entry): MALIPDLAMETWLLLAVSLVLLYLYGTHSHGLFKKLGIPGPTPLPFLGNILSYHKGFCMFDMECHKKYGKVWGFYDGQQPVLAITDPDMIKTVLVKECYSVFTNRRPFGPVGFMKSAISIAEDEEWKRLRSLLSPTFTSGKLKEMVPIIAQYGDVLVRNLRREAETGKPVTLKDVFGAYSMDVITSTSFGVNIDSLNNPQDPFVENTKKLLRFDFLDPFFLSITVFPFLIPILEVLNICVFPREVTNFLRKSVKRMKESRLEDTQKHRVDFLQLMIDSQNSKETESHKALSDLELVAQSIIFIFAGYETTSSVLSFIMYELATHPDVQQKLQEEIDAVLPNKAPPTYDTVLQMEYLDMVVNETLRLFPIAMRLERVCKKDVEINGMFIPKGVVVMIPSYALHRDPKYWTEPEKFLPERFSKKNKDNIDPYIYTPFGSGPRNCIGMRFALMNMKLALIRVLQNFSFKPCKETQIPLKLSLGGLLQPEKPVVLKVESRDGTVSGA
Catalogue of compounds with associated AC50

• COc1ccc(Cl)cc1C(=O)Nn1cnc2ccccc2c1=O = 25.1 µM (inconclusive)
• COc1cc(NC(=O)c2cc3ccccc3o2)c(OC)cc1Br = 10 µM (inconclusive)
• Cn1cccc1C(=O)N1CCC2(CCCN(Cc3ccncc3)C2)CC1 = 3.98 µM (inconclusive)
• Cn1c(=O)c(-c2ccccc2)nc2cnc(OCc3ccccc3)nc21 = 39.8 µM (inconclusive)

# input for lookup
Cytochrome P450 3A4 (Homo sapiens, UniProt P08684) / AC50 / "CSc1nnc(-c2cc3c(-c4ccccc4)nn(C)c3s2)n1C" : value?;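 further: CYP3A4 tested as one member of a cytochrome P450 panel screen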
31.6 µM (inconclusive)

---

Entries below carry reported AC50 on Cytochrome P450 2C9 (Homo sapiens, UniProt P11712).
Sequence (P11712 whole entry): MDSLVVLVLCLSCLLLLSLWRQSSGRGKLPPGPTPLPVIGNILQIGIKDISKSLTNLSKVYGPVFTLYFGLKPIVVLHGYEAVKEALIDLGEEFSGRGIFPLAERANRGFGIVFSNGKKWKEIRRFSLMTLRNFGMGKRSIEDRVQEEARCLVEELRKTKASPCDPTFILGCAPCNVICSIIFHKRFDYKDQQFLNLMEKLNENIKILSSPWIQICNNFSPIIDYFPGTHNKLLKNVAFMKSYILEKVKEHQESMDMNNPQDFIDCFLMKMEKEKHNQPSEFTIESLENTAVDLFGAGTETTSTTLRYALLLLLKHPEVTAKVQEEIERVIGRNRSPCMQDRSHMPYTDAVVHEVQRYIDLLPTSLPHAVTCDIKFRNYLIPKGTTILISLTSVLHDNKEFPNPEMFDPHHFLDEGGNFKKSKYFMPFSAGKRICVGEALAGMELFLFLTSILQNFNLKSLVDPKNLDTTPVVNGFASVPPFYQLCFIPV

Example molecules with recorded AC50:
* CCCCOC(=O)c1ccc(NC(=S)NC(=O)c2c(Cl)cnn2C)cc1 | 39.8 µM (inconclusive)
* O=C(c1ccncc1)N1CCC2(CCN(Cc3ccncc3)CC2)CC1 | 20 µM (inconclusive)
* Cc1cccc(CNc2nc(-c3cccc(NS(C)(=O)=O)c3)nc3ccccc23)c1 | 0.501 µM (inconclusive)
* COc1ccc(NC(=O)C2(c3ccc(NC(=O)c4ccc(OC(C)=O)cc4)cc3)CCCC2)cc1 | 1.26 µM (inconclusive)
* O=C(Oc1ccccc1)N1CCC2(CC1)CN(C(c1ccccc1)c1ccccc1)C2 | 39.8 µM (inconclusive)

Cytochrome P450 2C9 (Homo sapiens, UniProt P11712) / AC50 / "Cn1c(=O)c(-c2ccccc2)nc2cnc(OCc3ccccc3)nc21" : value?
20 µM (inconclusive)

Cytochrome P450 2C9 (Homo sapiens, UniProt P11712) / AC50 / "CSc1nnc(-c2cc3c(-c4ccccc4)nn(C)c3s2)n1C" : value?
3.55 µM (inconclusive)

Cytochrome P450 2C9 (Homo sapiens, UniProt P11712) / AC50 / COc1ccc([N+](=O)[O-])cc1NC1C2CC3CC(C2)CC1C3 (stereo not drawn) : value?
22.4 µM (inconclusive)

---

Biological target: Heat shock factor protein 1 (Mus musculus)
Sequence (P38532 whole entry): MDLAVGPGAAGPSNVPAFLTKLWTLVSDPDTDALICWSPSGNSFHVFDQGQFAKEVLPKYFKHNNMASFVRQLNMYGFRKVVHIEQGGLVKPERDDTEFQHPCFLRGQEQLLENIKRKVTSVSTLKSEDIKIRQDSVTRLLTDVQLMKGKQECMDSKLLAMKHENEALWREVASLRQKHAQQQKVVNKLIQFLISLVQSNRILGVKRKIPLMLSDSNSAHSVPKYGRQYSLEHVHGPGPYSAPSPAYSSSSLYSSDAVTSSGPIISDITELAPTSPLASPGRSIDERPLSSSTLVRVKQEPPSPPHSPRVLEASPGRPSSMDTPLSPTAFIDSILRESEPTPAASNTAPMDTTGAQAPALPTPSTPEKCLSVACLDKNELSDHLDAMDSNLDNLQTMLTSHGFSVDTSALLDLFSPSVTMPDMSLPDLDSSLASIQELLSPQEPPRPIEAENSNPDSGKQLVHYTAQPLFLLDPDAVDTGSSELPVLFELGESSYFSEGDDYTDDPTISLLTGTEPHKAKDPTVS
Test: enhancement of HSF1-driven luciferase signal – cell-based, NIH3T3, luminescence, dose retest, confirmation (AID 435004);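 further: stress induced by proteasome inhibitor MG132 added 30 min after compound; luciferase reporter driven by HSF1 response element in NIH3T3 cells; actives raise luminescence as potentiators of the MG132 stress response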
Format: functional
Activity calls are given as the source filed them.
Assign a class; possible classes are Yes = active, No = inactive

What outcome does the record of this test show for CC(Oc1ccc(Cl)cc1)C(=O)OCC(=O)Nc1ncc(Cl)cc1Cl (centres undefined) ?
No

What outcome does the record of this test show for Fc1ccc(/C=C2\CCCC3=C2Nc2ncnn2C3c2ccc(F)cc2)cc1 (centres undefined) ?
Yes

What outcome does the record of this test show for "O=C1c2ccccc2-c2onc3ccc(N4CCCC4)c1c23" ?
No

What outcome does the record of this test show for "CS(=O)(=O)N(CC(=O)Nc1ccc(CC#N)cc1)c1ccc(C23CC4CC(CC(C4)C2)C3)cc1" ?
No

---

Biological target: 26S proteasome non-ATPase regulatory subunit 14 (Homo sapiens, UniProt O00487)
Sequence (O00487 whole entry): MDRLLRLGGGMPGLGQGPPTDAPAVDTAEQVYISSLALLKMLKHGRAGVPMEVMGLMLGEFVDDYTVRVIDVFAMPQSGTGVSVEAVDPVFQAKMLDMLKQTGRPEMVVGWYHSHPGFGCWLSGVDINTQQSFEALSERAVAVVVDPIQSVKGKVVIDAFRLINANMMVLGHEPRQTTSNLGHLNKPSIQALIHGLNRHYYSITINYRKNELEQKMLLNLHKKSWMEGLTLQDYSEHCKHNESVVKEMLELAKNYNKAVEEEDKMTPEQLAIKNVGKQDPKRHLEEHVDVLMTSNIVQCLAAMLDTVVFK
Test: inhibition of proteasome subunit RPN11 – biochemical, fluorescence polarization, uHTS hits, confirmation (AID 602368)
Format: functional
The source made the active and inactive calls.
quantity.name: IC50

Example molecules with recorded IC50:
* Cc1cc(N2CCN(c3ccc([N+](=O)[O-])c4cccnc34)CC2)c2ccccc2n1 | 27.7 µM (active)
* CN(CCO)c1ccc(C=NNc2ccc([N+](=O)[O-])cc2S(=O)(=O)Nc2ccccc2C(=O)O)cc1 | 37 µM (active)

# lookup: IC50 of "COc1ccccc1N1C(=N)S/C(=C\c2ccc(-c3ccccc3C(=O)O)o2)C1=O"
24.8 µM (active)

---

Target: Zinc finger protein mex-5 (Caenorhabditis elegans, UniProt Q9XUB2)
Sequence (Q9XUB2 whole entry): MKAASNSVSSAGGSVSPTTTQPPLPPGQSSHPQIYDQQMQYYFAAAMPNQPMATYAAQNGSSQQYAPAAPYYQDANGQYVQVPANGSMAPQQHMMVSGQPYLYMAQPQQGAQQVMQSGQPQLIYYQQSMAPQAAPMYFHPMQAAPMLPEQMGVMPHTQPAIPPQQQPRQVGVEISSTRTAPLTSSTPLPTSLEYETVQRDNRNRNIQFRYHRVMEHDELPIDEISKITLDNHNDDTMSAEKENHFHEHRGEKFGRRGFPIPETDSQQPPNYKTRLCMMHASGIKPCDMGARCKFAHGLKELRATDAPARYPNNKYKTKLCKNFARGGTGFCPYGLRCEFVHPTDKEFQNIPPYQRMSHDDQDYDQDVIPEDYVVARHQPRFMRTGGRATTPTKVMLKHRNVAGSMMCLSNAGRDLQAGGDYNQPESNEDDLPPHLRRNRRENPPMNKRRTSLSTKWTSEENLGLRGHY
Experiment: potency of MEX-5 RNA-binding blockers – biochemical, C. elegans, fluorescence polarization, dose response (AID 1960)
Calls of active or inactive are those of the source.
quantity.name: EC50

- O=C(NNc1ccccc1)C(=O)NNS(=O)(=O)c1ccc([N+](=O)[O-])cc1: 5.08 µM (active)
- COc1ccc(C(=O)/C=C/Nc2ccc([N+](=O)[O-])cc2C)cc1OC: > 150 µM (not active)
- CCOC(=O)c1c(-c2ccccc2)csc1NC(=O)/C(C#N)=C/c1ccc(OC)c(OC)c1: > 300 µM (not active)
- O=Cc1c(-c2ccccc2)nc2ccccn12: > 300 µM (not active)
- Cc1cccc(NC2=Nc3ccccc3N3C2=Nc2c(c(C)nn2-c2ccccc2)C3c2ccc(O)c(O)c2)c1 (stereo unspecified): 28.3 µM (active)

# input for lookup
# lookup: EC50 of "CN(C)c1ccnc(Oc2ccc(Cl)cc2)c1C#N"
> 300 µM (not active)

---

Molecular target: Small ubiquitin-related modifier 1 (Homo sapiens, UniProt P63165)
Sequence (P63165 whole entry): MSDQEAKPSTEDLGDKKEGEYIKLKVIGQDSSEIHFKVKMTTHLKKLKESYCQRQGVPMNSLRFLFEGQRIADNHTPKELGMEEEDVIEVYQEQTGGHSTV
Assay: SUMO1 protein-protein binding blockers, potency – biochemical, FRET, dose response (AID 624383)
Assay type: functional
Details: read-out: IC50_Mean
Activity calls are given as the source filed them.
quantity.name: IC50

Example molecules with recorded IC50:
* COc1ccc(-n2c(SCC(=O)Nc3cccc(S(N)(=O)=O)c3)nc3ccccc3c2=O)cc1OC | 4.19 µM (active)
* CCCCCCC(=O)Nc1nc(C)c(-c2csc(Nc3cc(OC)ccc3OC)n2)s1 | 11.2 µM (active)

# input for lookup
# lookup: IC50 of "O=C(Nc1ccc(C2=NCCN2)cc1)c1ccc(C(=O)Nc2ccc(C3=NCCN3)cc2)c(Cl)c1"
4.61 µM (active)
